Reference for the values: PubChem BioAssay AID1259354

# target: Interleukin-1 receptor-like 1 (Homo sapiens) (UniProt Q01638)
# Sequence (Q01638 whole entry, looked up): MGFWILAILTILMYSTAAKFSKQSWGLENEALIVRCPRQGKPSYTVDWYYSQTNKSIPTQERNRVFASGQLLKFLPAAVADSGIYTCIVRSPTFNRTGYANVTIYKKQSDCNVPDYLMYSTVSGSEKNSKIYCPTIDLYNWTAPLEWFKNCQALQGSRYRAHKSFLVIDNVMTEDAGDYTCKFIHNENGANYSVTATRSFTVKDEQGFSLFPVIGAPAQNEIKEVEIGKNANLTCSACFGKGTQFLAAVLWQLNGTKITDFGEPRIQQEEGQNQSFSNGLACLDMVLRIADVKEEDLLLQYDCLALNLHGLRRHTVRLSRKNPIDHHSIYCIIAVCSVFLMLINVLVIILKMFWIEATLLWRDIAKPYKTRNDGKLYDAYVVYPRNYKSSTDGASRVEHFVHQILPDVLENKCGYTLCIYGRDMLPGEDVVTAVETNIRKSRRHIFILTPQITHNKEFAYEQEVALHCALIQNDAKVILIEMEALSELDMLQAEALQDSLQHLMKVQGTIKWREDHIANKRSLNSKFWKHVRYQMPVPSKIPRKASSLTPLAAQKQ
# procedure_details: inhibitors of human ST2 (IL1RL1) binding to IL-33, primary screen, biochemical, AlphaLISA (AID 1259354)
# experimental_context: AlphaLISA ST2-Fc/biotin-IL-33 interaction, 1 h; at 17 µM
Out of some 78,000 compounds screened, about 1,800 (2.3%) were called active. Roughly 27% stayed inconclusive and do not appear here. Cut-off read from the data, not from the text of the source: active = inhibition above about 30%; inconclusive = mostly about 10% to 28%; inactive = weaker than that. For the sample, actives were picked, then their nearest neighbours and some compounds at random.
Lab note: assign the record to one of active, inactive

Example entries begin here.
> print(dat)
                                   compound  label.value
1  CC1(c2ccccc2NC(=O)c2ccc([N+](=O)[O-])cc2)CC1       active
2  Fc1cccc(N2N=C(/C=C/c3cccs3)CC2c2cccs2)c1 (stereo unspecified)       active

Per the records of this test, what outcome belongs to N/C(=N/OC(=O)c1ccc2c(c1)OCO2)c1ccc(Cl)cc1 ?
inactive

Same again, this time with COc1ccc(-c2oc3ncn(Cc4ccco4)c(=N)c3c2-c2ccc(OC)cc2)cc1
active

Field entry: O=[N+]([O-])c1ccccc1S(=O)(=O)Nc1cccc2cccnc12
active

Field entry: COc1ccc(/C=C2\SC(=O)N(c3ccc(C)cc3)C2=O)cc1
inactive

====

# target: Interleukin-1 receptor-like 1 (Homo sapiens)
# procedure_details: inhibitors of human ST2 (IL1RL1) binding to IL-33, primary screen, biochemical, AlphaLISA (AID 1259354)
# experimental_context: AlphaLISA ST2-Fc/biotin-IL-33 interaction, 1 h; at 17 µM
Among all 78,000 compounds or so, about 1,800 (2.3%) were called active. Not shown: some 27% with an inconclusive outcome. Cut-off read from the data, not from the text of the source: active = inhibition above about 30%; inconclusive = mostly about 10% to 28%; inactive = weaker than that. This is one part of a sample in which actives are shown more often than they occur.
A correct response names exactly one class from active, inactive

> print(dat)
                                   compound  label.value
1  COc1ccc(-c2nc3s/c(=C\C4=Cc5ccccc5OC4C)c(=O)n3n2)cc1 (stereo unspecified)     inactive
2  COc1ccc(-c2csc(/C(C#N)=C\c3cccnc3)n2)cc1       active
3  COc1ccc(-c2cc(C(F)(F)F)nc(NCc3cccnc3)n2)cc1     inactive

Hey, what did the test say about O=C(Cn1nc(-c2ccccc2)ccc1=O)NCCN1CCOCC1 ?
inactive

# repeat for CCn1c(=O)cc(O)c2ccccc21
active

====

# target: Interleukin-1 receptor-like 1 (Homo sapiens)
# procedure_details: inhibitors of human ST2 (IL1RL1) binding to IL-33, primary screen, biochemical, AlphaLISA (AID 1259354)
# experimental_context: AlphaLISA ST2-Fc/biotin-IL-33 interaction, 1 h; at 17 µM
Screen size: about 78,000 compounds; about 1,800 (2.3%) were called active. Inconclusive results (about 27%) are left out. Rule as the data show it: active = inhibition above about 30%; inconclusive = mostly about 10% to 28%; inactive = weaker than that. This excerpt belongs to a sample that is enriched for actives.
Outcome (select one): active, inactive

> print(dat)
                               given.smiles  label.value
1  COc1cc(OC)cc(C(=O)N2c3ccccc3Sc3ccccc32)c1     inactive
2   CN1C(N)=NC(=O)/C1=C/c1cc(Br)c(O)c(Br)c1     inactive
3    CN(Cc1ncc[nH]1)C(=O)C1CCN(Cc2ccco2)CC1     inactive
4  O=C(Nc1ccc2c(c1)OCO2)C1CCN(S(=O)(=O)c2ccc(F)cc2)CC1     inactive
5  O=C1NC(=O)/C(=C\c2ccc(-c3ccc(F)c(Cl)c3)o2)S1       active

For COc1ccc(Cl)cc1C(=O)N1CCN(c2cccc(Cl)c2)CC1 , what call appears in the results of this test?
inactive
